tested on: rat primary hepatocytes; test: MMP assay in rat primary hepatocytes; conditions: rat hepatocytes; mean ± SD of three experiments

- Molecule: "CCc1oc2ccccc2c1C(=O)c1cc(I)c(O)c(I)c1"
  Experimental Target: "rat primary hepatocytes"
  U: "%"
  MMP assays efficacy (%) Rat Hepatocytes: -95
- Molecule: "CCC(=O)OCC(=O)[C@@]1(OC(=O)CC)[C@@H](C)C[C@H]2[C@@H]3CCC4=CC(=O)C=C[C@]4(C)[C@@]3(Cl)[C@@H](O)C[C@@]21C"
  Experimental Target: "rat primary hepatocytes"
  U: "%"
  MMP assays efficacy (%) Rat Hepatocytes: -89
- Molecule: "O=c1cc(-c2ccccc2)oc2cc(O)cc(O)c12"
  Experimental Target: "rat primary hepatocytes"
  U: "%"
  MMP assays efficacy (%) Rat Hepatocytes: -78
- Molecule: "CN[C@H]1CC[C@@H](c2ccc(Cl)c(Cl)c2)c2ccc(S(N)(=O)=O)cc21"
  Experimental Target: "rat primary hepatocytes"
  U: "%"
  MMP assays efficacy (%) Rat Hepatocytes: -51
- Molecule: "CC(C)=CCOc1ccc(/C=C/C(=O)c2ccc(OCC=C(C)C)cc2OCC(=O)O)cc1"
  Experimental Target: "rat primary hepatocytes"
  U: "%"
  MMP assays efficacy (%) Rat Hepatocytes: -65
- Molecule: "Cl.N=C1C=CC(=C(c2ccc(N)cc2)c2ccc(N)cc2)C=C1 [C.I. Basic red 9 monohydrochloride]"
  Experimental Target: "rat primary hepatocytes"
  U: "%"
  MMP assays efficacy (%) Rat Hepatocytes: -96
- Molecule: "CCc1c(C(=O)NN2CCCCC2)nn(-c2ccc(Cl)cc2Cl)c1-c1ccc(Br)cc1"
  Experimental Target: "rat primary hepatocytes"
  U: "%"
  MMP assays efficacy (%) Rat Hepatocytes: -81
- Molecule: "CCCCCCCCCCCCCC[P+](CCCCCC)(CCCCCC)CCCCCC.[Cl-] [Trihexyltetradecylphosphonium chloride]"
  Experimental Target: "rat primary hepatocytes"
  U: "%"
  MMP assays efficacy (%) Rat Hepatocytes: -91
- Molecule: "Cc1ccc(C(C)(C)C)c(O)c1"
  Experimental Target: "rat primary hepatocytes"
  U: "%"
  MMP assays efficacy (%) Rat Hepatocytes: -66
- Molecule: "CCCCCCCCCCCCCC[n+]1ccccc1 [Tetradecylpyridinium bromide]"
  Experimental Target: "rat primary hepatocytes"
  U: "%"
  MMP assays efficacy (%) Rat Hepatocytes: -99
- Molecule: "CCCCCCCCCCCC[N+](C)(C)Cc1ccccc1.[Br-] [Benzyldodecyldimethylammonium bromide]"
  Experimental Target: "rat primary hepatocytes"
  U: "%"
  MMP assays efficacy (%) Rat Hepatocytes: -44
- Molecule: "O=C(O)c1ccccc1Nc1cccc(C(F)(F)F)c1"
  Experimental Target: "rat primary hepatocytes"
  U: "%"
  MMP assays efficacy (%) Rat Hepatocytes: -111
- Molecule: "Nc1ccc(O)c([N+](=O)[O-])c1"
  Experimental Target: "rat primary hepatocytes"
  U: "%"
  MMP assays efficacy (%) Rat Hepatocytes: -90
- Molecule: "Cc1nnc2n1-c1sc(CCc3ccc(CC(C)C)cc3)cc1C(c1ccccc1Cl)=NC2C (centres unmarked)"
  Experimental Target: "rat primary hepatocytes"
  U: "%"
  MMP assays efficacy (%) Rat Hepatocytes: -55
- Molecule: "Oc1c2ccccc2c2c3c(cccc13)N=N2"
  Experimental Target: "rat primary hepatocytes"
  U: "%"
  MMP assays efficacy (%) Rat Hepatocytes: -82
